# System: HCT-15
Lab note: cut-off is 10 µM. Strictly less in GI50 is true. Exactly 10 µM or more is false.

Answered examples (6):
C=C1C(=O)OC2CC(C)C3CC(O)OC(OCC)C3(C)CC12 (centres undefined); true
COc1cc(O)c2c(=O)c(OC)c(-c3ccc(OC)c(OC)c3)oc2c1 [RETUSIN]; false
CC1(C)C(C#N)=[N+]([O-])C(C)(C)N1O; false
CC(C)(C)OC(=O)CCCCCNC(=O)CCCCCNC(=O)CCC(CN(CC(=O)OCc1ccccc1)CC(=O)OCc1ccccc1)N(CC(=O)OCc1ccccc1)CC(=O)OCc1ccccc1 (centres undefined); false
C/C(=N/NC(=S)Nc1cccc(Cl)c1)c1cccc(/C(C)=N\NC(=S)Nc2cccc(Cl)c2)n1; true
C=C1C(=O)OC2CC3(CO3)C3C(O)C(O)CC3(C)CC12 (centres undefined); false

Query: # TODO verify GI50 < 10 µM strictly for this compound: CCC(=O)c1c(NOC2OC(COC(C)=O)C(OC(C)=O)C(OC(C)=O)C2OC(C)=O)nc(OC)n(C)c1=O (centres undefined)
Reply: false

Query: # TODO verify GI50 < 10 µM strictly for this compound: C=CCOC(OCC=C)/C(Br)=C/C
Reply: false

Query: # TODO verify GI50 < 10 µM strictly for this compound: CC[C@]12C=CCN3CCC4(c5cc(/N=N/c6ccc([N+](=O)[O-])cc6)c(OC)cc5N(C)[C@H]4[C@@](O)(C(=O)OC)[C@@H]1OC(C)=O)[C@@H]32 (some centres undefined)
Reply: false

Query: # TODO verify GI50 < 10 µM strictly for this compound: S=C(NCCCCCCNC(=S)Nc1c2ccccc2nc2ccccc12)Nc1c2ccccc2nc2ccccc12
Reply: false

Query: # TODO verify GI50 < 10 µM strictly for this compound: Cn1c(=O)c(C(=O)NC(=O)NCCCCCOC(=O)CCCCCCCCCCC(=O)OCCCCCNC(=O)NC(=O)c2cn(Cc3ccccc3)c(=O)n(C)c2=O)cn(Cc2ccccc2)c1=O
Reply: false

Query: # TODO verify GI50 < 10 µM strictly for this compound: CN1CCc2cc(N)cc3c2C1Cc1ccc(O)c(O)c1-3 (centres undefined)
Reply: false

---

# System: OVCAR-3
# Procedure text: NCI tumour cell line growth inhibition, 48 h
The source made the active and inactive calls. Rule as the data show it: active = GI50 up to about 1.1 µM and inactive = higher.
# GI50 annotations

c1ccc(COc2ccc(C[P+](c3ccccc3)(c3ccccc3)c3ccccc3)cc2)cc1; 0.146 µM (active)
N#CCCC(C=O)(CCC#N)CCC#N; > 100 µM (inactive)
O=c1c2cc3c(cc2[nH]c2ncccc12)OCO3; > 10 µM (inactive)
O=C(COc1ccc2c(=O)cc(-c3ccc(Cl)cc3)oc2c1)N1CCN(c2ccccc2)CC1; > 100 µM (inactive)
COC(=O)C1=C(C)N(NC(N)=O)C2(N)N(NC(N)=O)C(C)=C(C(=O)OC)C12C(=O)OC (stereo not drawn); > 10 µM (inactive)

Proceed to the following item.
Query: Fill in: GI50 on OVCAR-3, entry Cc1ccc(NC(=O)CCc2n[nH]c(=S)o2)cc1
Reply: > 100 µM (inactive)

---

# System: SN12C
# Procedure text: NCI tumour cell line growth inhibition, 48 h
The source made the active and inactive calls. Rule as the data show it: active = GI50 up to about 1.1 µM and inactive = higher.
Readout: GI50

Some compounds with recorded GI50:
COc1ccc(N[C@H](C[S+]([O-])c2ccc(C)cc2)C(F)(F)F)cc1 (stereo partly specified); > 100 µM (inactive)
O=S(=O)(O)c1ccc(/N=N\c2c(O)ccc3cc(Br)ccc23)cc1; > 100 µM (inactive)
CS(=N)(=O)CCC(N)P(=O)(O)O (stereo unspecified); > 100 µM (inactive)
CCC(=O)c1cc(C(=O)C(=S)SC)cc(C(=O)C(=S)SC)c1; > 100 µM (inactive)

Query: // fetch GI50 given entry COC(=O)C1CCCCCCCCCCC12SCCCS2 (stereo unspecified)
Reply: 16.9 µM (inactive)

Query: // fetch GI50 given entry CC(C)C(=O)Nc1nc2c(ncn2C2OC(CO)C(O)C2O)c(=O)[nH]1 (stereo unspecified)
Reply: > 100 µM (inactive)

Query: // fetch GI50 given entry OC(c1ccccc1)c1c(-c2ccccc2)oc(-c2ccccc2)c1C(O)c1ccccc1 (stereo unspecified)
Reply: 6.22 µM (inactive)

Query: // fetch GI50 given entry CCOC(=O)C1(C(N)=O)C(=O)c2ccncc2C1=O (stereo unspecified)
Reply: > 100 µM (inactive)

Query: // fetch GI50 given entry COc1ccc(C2S/C(=C\c3ccc([N+](=O)[O-])cc3)C(=O)N2NC(=O)Cc2ccccc2)cc1 (stereo unspecified)
Reply: > 100 µM (inactive)

Query: // fetch GI50 given entry Cc1cc(/N=N/c2ccccc2C)ccc1N
Reply: 12.4 µM (inactive)

Query: // fetch GI50 given entry Cn1cc(-c2ccc(CCOC3CCCCO3)cc2)c2c(C#N)cccc21 (stereo unspecified)
Reply: > 100 µM (inactive)
